All values here come from ChEMBL document CHEMBL4118176.

- Experiment notes: Clearance in rat liver microsomes
- Type: ADME, microsome
- Measurement setup: read-out: CLH
Form field: CLint scaled (one value per entry).

Sample smiles	CLint scaled, mL/min/kg
Nc1cccnc1N1CCC(C(=O)Nc2ccc(-n3nccn3)c(Cl)c2)CC1	102
Cc1cn(-c2cc(NC(=O)C3CCN(c4ncccc4Cl)CC3)cc(C(F)(F)F)c2)cn1	60.2
Cc1nc(C)n(-c2ccc(NC(=O)C3CCN(c4ncccc4[N+](=O)[O-])CC3)cc2Cl)n1	29
CNC(=O)c1ncn(-c2ccc(NC(=O)C3CCN(c4ncccc4Cl)CC3)cc2Cl)n1	59.8
Cc1ccc(NC(=O)C2CCN(c3ncccc3Cl)CC2)cc1Cl	81

* * *

- Experiment notes: Clearance in rat hepatocytes assessed per 10^6 cells
- Format: ADME, cell-based, Hepatocyte
Form field: CLH (one value per entry).

Sample smiles	CLH, µL/min/1e6 cells
CNC(=O)c1ncn(-c2ccc(NC(=O)C3CCN(c4ncccc4Cl)CC3)cc2Cl)n1	228
Cc1ccc(NC(=O)C2CCN(c3ncccc3Cl)CC2)cc1Cl	173
Cc1nc(C)n(-c2ccc(NC(=O)C3CCN(c4ncccc4[N+](=O)[O-])CC3)cc2Cl)n1	4.1
Cc1cn(-c2cc(NC(=O)C3CCN(c4ncccc4Cl)CC3)cc(C(F)(F)F)c2)cn1	18.8

* * *

- Experiment notes: Oral bioavailability in rat at 3 mg/kg
- Type: ADME, organism-based
- Measurement setup: in vivo
Form field: bioavailability (one value per entry).

Sample smiles	bioavailability, %
Cc1nc(C)n(-c2ccc(NC(=O)C3CCN(c4ncccc4[N+](=O)[O-])CC3)cc2Cl)n1	46
Cc1cn(-c2cc(NC(=O)C3CCN(c4ncccc4Cl)CC3)cc(C(F)(F)F)c2)cn1	46

* * *

- Experiment notes: AUC in rat at 1 mg/kg, iv
- Type: ADME, organism-based
- Measurement setup: in vivo
# note: exactly 0.2 µM·h is not below, so it is F; use T for AUC strictly under it

Sample smiles	Assigned category
Cc1nc(C)n(-c2ccc(NC(=O)C3CCN(c4ncccc4[N+](=O)[O-])CC3)cc2Cl)n1	F
Cc1ccc(NC(=O)C2CCN(c3ncccc3Cl)CC2)cc1Cl	T
CNC(=O)c1ncn(-c2ccc(NC(=O)C3CCN(c4ncccc4Cl)CC3)cc2Cl)n1	T
Nc1cccnc1N1CCC(C(=O)Nc2ccc(-n3nccn3)c(Cl)c2)CC1	T
Cc1cn(-c2cc(NC(=O)C3CCN(c4ncccc4Cl)CC3)cc(C(F)(F)F)c2)cn1	F

* * *

- System under test: Mucosa-associated lymphoid tissue lymphoma translocation protein 1 (Homo sapiens, UniProt Q9UDY8)
- Sequence (Q9UDY8 whole entry): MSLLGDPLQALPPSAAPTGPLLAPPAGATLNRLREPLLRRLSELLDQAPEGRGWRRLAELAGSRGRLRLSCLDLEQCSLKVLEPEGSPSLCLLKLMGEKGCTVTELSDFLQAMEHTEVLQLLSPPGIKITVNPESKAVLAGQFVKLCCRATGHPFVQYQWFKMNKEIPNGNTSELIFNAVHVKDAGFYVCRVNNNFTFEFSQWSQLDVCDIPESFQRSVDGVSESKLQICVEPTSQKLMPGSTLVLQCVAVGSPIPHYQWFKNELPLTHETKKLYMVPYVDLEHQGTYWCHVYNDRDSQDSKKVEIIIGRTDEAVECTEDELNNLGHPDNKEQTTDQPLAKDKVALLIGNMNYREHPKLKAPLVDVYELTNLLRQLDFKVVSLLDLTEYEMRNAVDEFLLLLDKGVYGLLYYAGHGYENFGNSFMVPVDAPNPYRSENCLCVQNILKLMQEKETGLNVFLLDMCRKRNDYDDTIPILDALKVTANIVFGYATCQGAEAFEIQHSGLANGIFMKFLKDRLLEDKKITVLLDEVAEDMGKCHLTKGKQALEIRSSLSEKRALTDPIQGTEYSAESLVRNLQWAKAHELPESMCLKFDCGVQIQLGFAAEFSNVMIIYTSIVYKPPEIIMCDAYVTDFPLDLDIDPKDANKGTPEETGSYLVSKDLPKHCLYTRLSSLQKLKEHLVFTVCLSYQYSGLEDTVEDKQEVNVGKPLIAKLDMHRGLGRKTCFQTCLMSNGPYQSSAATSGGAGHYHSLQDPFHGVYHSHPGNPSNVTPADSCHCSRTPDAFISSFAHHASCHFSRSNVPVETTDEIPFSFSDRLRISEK
- Experiment notes: Inhibition of MALT1 in PMA-stimulated human Jurkat T cells assessed as reduction in IL2 level pretreated for 30 mins followed by PMA-stimulation measured after 5.5 hr by bioluminescence assay
- Assay type: cell-based
pIC50: −log10 of the molar value.
Form field: pIC50 (one value per entry).

Sample smiles	pIC50
Nc1cccnc1N1CCC(C(=O)Nc2cnc(-n3nccn3)c(Cl)c2)CC1	7.10
O=C(Nc1cnc(-n2nccn2)c(Cl)c1)C1CCN(c2ncccc2Cl)CC1	7.30

* * *

- Experiment notes: Solubility of the compound in buffer at pH 6.8
- Type: physicochemical
Endpoint name: solubility

Sample smiles	Endpoint name	Result
Cc1ccc(NC(=O)C2CCN(c3ncccc3Cl)CC2)cc1Cl	solubility	< 4 µM
Nc1cccnc1N1CCC(C(=O)Nc2ccc(-n3nccn3)c(Cl)c2)CC1	solubility	< 4 µM
CNC(=O)c1ncn(-c2ccc(NC(=O)C3CCN(c4ncccc4Cl)CC3)cc2Cl)n1	solubility	< 4 µM
